Values were extracted from paper PMC10408569.

- System: HCT-15
- protocol_details: NCI-60 anticancer screening (SRB)
- Format: cell-based
- measurement_conditions: Homo sapiens; HCT-15, colon cancer; one dose 10 μM; read-out: Growth Inhibition Percentage (GI %)
recorded_endpoint: inhibition at 10 µM

>  <compound>
CCOC(=O)C1=C(N)N(c2ccc(Cl)cc2)C2=C(C(=O)CC(C)(C)C2)C1c1ccc(Cl)cc1Cl (racemic) [10d]

>  <result>
65%

$$$$
>  <compound>
CCOC(=O)C1=C(N)N(c2ccc(Cl)cc2)C2=C(C(=O)CC(C)(C)C2)C1c1cccnc1 (racemic) [12f]

>  <result>
< 10%

$$$$
>  <compound>
CCOC(=O)C1=C(N)N(c2ccccc2)C2=C(C(=O)CC(C)(C)C2)C1c1ccc(N2CCOCC2)cc1 (racemic) [8l]

>  <result>
< 10%

$$$$

###

Here, each record is paired with measured inhibition at 10 µM data.
- System: SR
- protocol_details: NCI-60 anticancer screening (SRB)
- Type: cell-based
- measurement_conditions: Homo sapiens, leukemia, one dose 10 μM, read-out: Growth Inhibition Percentage (GI %)

>  <compound>
CCOC(=O)C1=C(N)N(c2ccc(Cl)cc2)C2=C(C(=O)CC(C)(C)C2)C1c1ccc(F)cc1 (racemic) [8b]

>  <inhibition at 10 µM>
< 10%

$$$$
>  <compound>
CCOC(=O)C1=C(N)N(c2ccc(C)cc2)C2=C(C(=O)CC(C)(C)C2)C1c1ccc(OC)cc1 (racemic) [8g]

>  <inhibition at 10 µM>
< 10%

$$$$
>  <compound>
CCOC(=O)C1=C(N)N(c2ccc(C)cc2)C2=C(C(=O)CC(C)(C)C2)C1c1ccc(Cl)cc1 (racemic) [8d]

>  <inhibition at 10 µM>
< 10%

$$$$
>  <compound>
CCOC(=O)C1=C(N)N(c2ccccc2)C2=C(C(=O)CC(C)(C)C2)C1c1ccccc1OC (racemic) [6g]

>  <inhibition at 10 µM>
< 10%

$$$$
>  <compound>
CCOC(=O)C1=C(N)N(c2ccc(Cl)cc2)C2=C(C(=O)CC(C)(C)C2)C1c1ccccc1Cl (racemic) [6c]

>  <inhibition at 10 µM>
< 10%

$$$$
>  <compound>
CCOC(=O)C1=C(N)N(c2ccc(C)cc2)C2=C(C(=O)CC(C)(C)C2)C1c1ccccc1OC (racemic) [6h]

>  <inhibition at 10 µM>
< 10%

$$$$
>  <compound>
CCOC(=O)C1=C(N)N(c2ccccc2)C2=C(C(=O)CC(C)(C)C2)C1c1cccnc1 (racemic) [12d]

>  <inhibition at 10 µM>
< 10%

$$$$
>  <compound>
CCOC(=O)C1=C(N)N(c2ccc(Cl)cc2)C2=C(C(=O)CC(C)(C)C2)C1c1ccccc1Br (racemic) [6f]

>  <inhibition at 10 µM>
< 10%

$$$$
>  <compound>
CCOC(=O)C1=C(N)N(c2ccc(Cl)cc2)C2=C(C(=O)CC(C)(C)C2)C1c1ccc(OC)cc1 (racemic) [8h]

>  <inhibition at 10 µM>
< 10%

$$$$
>  <compound>
CCOC(=O)C1=C(N)N(c2ccccc2)C2=C(C(=O)CC(C)(C)C2)C1c1cccc(Cl)c1Cl (racemic) [10a]

>  <inhibition at 10 µM>
44%

$$$$
>  <compound>
CCOC(=O)C1=C(N)N(c2ccc(Cl)cc2)C2=C(C(=O)CC(C)(C)C2)C1c1ccccn1 (racemic) [12c]

>  <inhibition at 10 µM>
< 10%

$$$$
>  <compound>
CCOC(=O)C1=C(N)N(c2ccc(C)cc2)C2=C(C(=O)CC(C)(C)C2)C1c1ccccn1 (racemic) [12b]

>  <inhibition at 10 µM>
< 10%

$$$$
>  <compound>
CCOC(=O)C1=C(N)N(c2ccc(Cl)cc2)C2=C(C(=O)CC(C)(C)C2)C1c1ccc(N2CCOCC2)cc1 (racemic) [8m]

>  <inhibition at 10 µM>
< 10%

$$$$
>  <compound>
CCOC(=O)C1=C(N)N(c2ccc(Cl)cc2)C2=C(C(=O)CC(C)(C)C2)C1c1ccc([N+](=O)[O-])cc1 (racemic) [8k]

>  <inhibition at 10 µM>
32%

$$$$
>  <compound>
CCOC(=O)C1=C(N)N(c2ccc(C)cc2)C2=C(C(=O)CC(C)(C)C2)C1c1ccc([N+](=O)[O-])cc1 (racemic) [8j]

>  <inhibition at 10 µM>
< 10%

$$$$
>  <compound>
CCOC(=O)C1=C(N)N(c2ccccc2)C2=C(C(=O)CC(C)(C)C2)C1c1ccccc1Cl (racemic) [6a]

>  <inhibition at 10 µM>
68%

$$$$
>  <compound>
CCOC(=O)C1=C(N)N(c2ccccc2)C2=C(C(=O)CC(C)(C)C2)C1c1ccc(F)cc1 (racemic) [8a]

>  <inhibition at 10 µM>
< 10%

$$$$
>  <compound>
CCOC(=O)C1=C(N)N(c2ccc(C)cc2)C2=C(C(=O)CC(C)(C)C2)C1c1cccnc1 (racemic) [12e]

>  <inhibition at 10 µM>
< 10%

$$$$
>  <compound>
CCOC(=O)C1=C(N)N(c2ccc(C)cc2)C2=C(C(=O)CC(C)(C)C2)C1c1ccccc1Cl (racemic) [6b]

>  <inhibition at 10 µM>
< 10%

$$$$
>  <compound>
CCOC(=O)C1=C(N)N(c2ccc(Cl)cc2)C2=C(C(=O)CC(C)(C)C2)C1c1cccnc1 (racemic) [12f]

>  <inhibition at 10 µM>
< 10%

$$$$
>  <compound>
CCOC(=O)C1=C(N)N(c2ccc(C)cc2)C2=C(C(=O)CC(C)(C)C2)C1c1ccccc1Br (racemic) [6e]

>  <inhibition at 10 µM>
34%

$$$$
>  <compound>
CCOC(=O)C1=C(N)N(c2ccccc2)C2=C(C(=O)CC(C)(C)C2)C1c1ccc(Cl)cc1Cl (racemic) [10c]

>  <inhibition at 10 µM>
90%

$$$$

###

- study_target: EGFR^T790M (Homo sapiens, UniProt P00533, T790M)
- Sequence (P00533 25-1210 T790M): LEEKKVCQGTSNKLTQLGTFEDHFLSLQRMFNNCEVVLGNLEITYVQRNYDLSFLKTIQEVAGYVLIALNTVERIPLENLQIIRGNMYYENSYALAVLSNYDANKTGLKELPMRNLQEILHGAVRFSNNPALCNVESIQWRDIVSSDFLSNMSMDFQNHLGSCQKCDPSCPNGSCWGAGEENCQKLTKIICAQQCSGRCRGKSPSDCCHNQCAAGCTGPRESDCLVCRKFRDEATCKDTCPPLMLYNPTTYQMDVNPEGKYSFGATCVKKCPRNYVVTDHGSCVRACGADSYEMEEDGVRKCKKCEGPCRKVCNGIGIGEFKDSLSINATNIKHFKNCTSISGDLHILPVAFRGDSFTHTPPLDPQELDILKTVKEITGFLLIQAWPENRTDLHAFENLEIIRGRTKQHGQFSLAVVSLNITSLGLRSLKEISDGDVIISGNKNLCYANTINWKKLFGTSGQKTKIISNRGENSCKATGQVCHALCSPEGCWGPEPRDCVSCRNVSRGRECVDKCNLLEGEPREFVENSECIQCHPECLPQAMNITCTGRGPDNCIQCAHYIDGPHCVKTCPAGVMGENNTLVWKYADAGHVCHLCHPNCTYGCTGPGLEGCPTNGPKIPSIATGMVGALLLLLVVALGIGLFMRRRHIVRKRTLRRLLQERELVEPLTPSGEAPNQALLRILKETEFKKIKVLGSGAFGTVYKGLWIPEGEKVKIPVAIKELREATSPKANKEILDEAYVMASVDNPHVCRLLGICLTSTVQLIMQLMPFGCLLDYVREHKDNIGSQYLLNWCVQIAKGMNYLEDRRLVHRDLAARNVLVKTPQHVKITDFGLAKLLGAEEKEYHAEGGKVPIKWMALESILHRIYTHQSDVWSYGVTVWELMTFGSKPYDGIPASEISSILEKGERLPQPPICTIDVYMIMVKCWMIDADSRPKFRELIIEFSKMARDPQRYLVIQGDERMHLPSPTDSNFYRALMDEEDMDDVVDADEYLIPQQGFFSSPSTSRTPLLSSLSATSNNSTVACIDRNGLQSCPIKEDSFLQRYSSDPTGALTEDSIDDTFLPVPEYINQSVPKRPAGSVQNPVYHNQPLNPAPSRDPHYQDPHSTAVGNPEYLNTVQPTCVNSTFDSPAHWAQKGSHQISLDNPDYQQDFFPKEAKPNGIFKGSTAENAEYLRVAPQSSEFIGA
- protocol_details: biochemical
pIC50: −log10 of the molar value.
recorded_endpoint: pIC50

>  <compound>
CCOC(=O)C1=C(N)N(c2ccc(Cl)cc2)C2=C(C(=O)CC(C)(C)C2)C1c1ccc(Cl)cc1Cl (racemic) [10d]

>  <recorded_endpoint>
pIC50

>  <measured_number>
6.55

$$$$
>  <compound>
CCOC(=O)C1=C(N)N(c2ccccc2)C2=C(C(=O)CC(C)(C)C2)C1c1ccc(Cl)cc1Cl (racemic) [10c]

>  <recorded_endpoint>
pIC50

>  <measured_number>
6.23

$$$$
>  <compound>
CCOC(=O)C1=C(N)N(c2ccc(Cl)cc2)C2=C(C(=O)CC(C)(C)C2)C1c1ccccc1Br (racemic) [6f]

>  <recorded_endpoint>
pIC50

>  <measured_number>
6.23

$$$$
